- Test system: histone deacetylase enzyme in nuclear extracts from H446 cells (pooled HDACs)
- protocolText: Histone deacetylase inhibition, H446 nuclear extracts (pooled HDACs)
- Assay type: biochemical, human
- measurementContext: percent inhibition at 20 μM (footnote)
Consider the following compounds; for each one, report its pooled HDACs percent inhibition.
Answers are plain numbers, in %.

Would you please look over these solved cases?
compound="Nc1ccccc1CNC(=O)CCCCCCC(=O)c1ccc(-c2ccccc2)cc1 [Compound 75]" measurementtype="pooled HDACs percent inhibition" quantitativereadout=0
compound="Nc1ccccc1NC(=O)CCCCCn1cnc2ccccc2c1=O [Compound 239a]" measurementtype="pooled HDACs percent inhibition" quantitativereadout=0

Attention now shifts to the item below.
Req: Please give measured pooled HDACs percent inhibition of the following entry: Nc1ccccc1NC(=O)NCCCCCC(=O)c1ccc(-c2ccccc2)cc1 [Compound 92]
Resp: 0

###

- targetUnderTest: recombinant human HDAC-1 enzyme (rHDAC-1) (Homo sapiens)
- Construct: made in house; host or cells: Baculovirus insect cell expression system
- protocolText: Histone deacetylase inhibition, recombinant human HDAC-1
- Assay type: biochemical
- measurementContext: cloned recombinant human HDAC-1, Baculovirus insect cell expression; read-out: rHDAC-1 IC50
pIC50: −log10 of the molar value.
Tick class 1 if pIC50 is 6 or greater. Tick class 0 if pIC50 is less than 6.

Answered cases to consult:
compound="Nc1ccccc1NC(=O)CCCCSCC(=O)c1ccc2ccccc2c1 [Compound 227a]" classassignment="class 0"
compound="Nc1ccccc1NC(=O)CCCCN1C(=O)c2ccccc2C1=O [Compound 243b]" classassignment="class 0"
compound=CN(CCCCC(=O)NO)Cc1ccc2ccccc2c1 classassignment="class 0"
compound=O=C(/C=C/C=C/CCC(=O)c1ccc(-c2ccccc2)cc1)NO classassignment="class 1"
compound=CN(CCCCCC(=O)NO)Cc1ccc2ccccc2c1 classassignment="class 1"

Moving on to the next compound.
Req: Is pIC50 at least 6? Consider Nc1ccccc1NC(=O)CCCCCN1C(=O)c2cccnc2C1=O [Compound 246a]
Resp: class 0

###

- targetUnderTest: recombinant human HDAC-1 enzyme (rHDAC-1) (Homo sapiens, UniProt Q13547)
- Construct: made in house; host or cells: Baculovirus insect cell expression system
- Sequence (Q13547 whole entry): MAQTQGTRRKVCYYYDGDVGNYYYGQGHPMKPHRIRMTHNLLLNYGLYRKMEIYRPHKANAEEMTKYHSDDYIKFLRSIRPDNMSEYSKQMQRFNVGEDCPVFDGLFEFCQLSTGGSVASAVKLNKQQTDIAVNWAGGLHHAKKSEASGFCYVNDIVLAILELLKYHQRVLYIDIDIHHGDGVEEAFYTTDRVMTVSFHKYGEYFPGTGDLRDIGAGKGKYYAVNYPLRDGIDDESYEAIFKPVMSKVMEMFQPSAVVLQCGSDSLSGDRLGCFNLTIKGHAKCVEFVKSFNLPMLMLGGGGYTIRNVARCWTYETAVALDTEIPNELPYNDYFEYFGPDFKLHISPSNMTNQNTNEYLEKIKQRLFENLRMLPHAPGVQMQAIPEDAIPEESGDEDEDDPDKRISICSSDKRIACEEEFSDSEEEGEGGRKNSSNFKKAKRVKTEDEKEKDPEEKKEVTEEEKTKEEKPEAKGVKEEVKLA
- protocolText: Histone deacetylase inhibition, recombinant human HDAC-1
- Assay type: biochemical
- measurementContext: cloned recombinant human HDAC-1, Baculovirus insect cell expression; read-out: rHDAC-1 IC50
Could you please report measured IC50 for the items listed next?
Numbers only, in nM.

compound=O=C(CCCCCCC(=O)c1ccc(Oc2ccccc2)cc1)NO measurementtype=IC50 readingunit=nM quantitativereadout=160
compound="Nc1ccccc1NC(=O)CCCCCCC(=NO)c1ccc2ccccc2c1 (mixture of isomers)" measurementtype=IC50 readingunit=nM quantitativereadout=4000
compound="Nc1ccccc1NC(=O)CCCCCN1C(=O)c2cc(Cl)c(Cl)cc2C1=O [Compound 243f]" measurementtype=IC50 readingunit=nM quantitativereadout=3000
compound=COc1ccc(-c2ccc(C(=O)CCCCCCC(=O)NO)cc2)cc1 measurementtype=IC50 readingunit=nM quantitativereadout=2
compound=COc1ccc(-c2ccc(C(=O)CCCCCCC(=O)Nc3ccccc3N)cn2)cc1OC measurementtype=IC50 readingunit=nM quantitativereadout=4000

Each compound below has a reported value. Please supply its IC50.
1. Nc1ccccc1NC(=O)CCCCCCC(O)c1cccc(-c2ccccc2)c1 (centres unmarked)
2. O=C(CCCCCCC(=NO)c1ccccc1)NO [Compound 51a, N-Hydroxy-8-oximino-8-phenyloctanamide]
3. O=C(CCCCCCC(=O)c1cc2ccccc2[nH]1)NO
4. Nc1ccccc1NC(=O)CCCCCCOc1ccc(-c2ccccc2)cc1
5. O=C(CCCCCN(Cc1ccccc1)Cc1ccc2ccccc2c1)NO [Compound 220b]
6. Nc1ccccc1NC(=O)NCCCCCCC(=O)c1ccccc1

Resp:
1000
100
4000
1000
100
16300
